molecular target: UniProt P27338; assay: Inhibition of human recombinant MAO-B expressed in baculovirus-infected BTI cells using kynuramine as substrate incubated for 30 mins by fluorescence based analysis
Sequence (P27338 whole entry): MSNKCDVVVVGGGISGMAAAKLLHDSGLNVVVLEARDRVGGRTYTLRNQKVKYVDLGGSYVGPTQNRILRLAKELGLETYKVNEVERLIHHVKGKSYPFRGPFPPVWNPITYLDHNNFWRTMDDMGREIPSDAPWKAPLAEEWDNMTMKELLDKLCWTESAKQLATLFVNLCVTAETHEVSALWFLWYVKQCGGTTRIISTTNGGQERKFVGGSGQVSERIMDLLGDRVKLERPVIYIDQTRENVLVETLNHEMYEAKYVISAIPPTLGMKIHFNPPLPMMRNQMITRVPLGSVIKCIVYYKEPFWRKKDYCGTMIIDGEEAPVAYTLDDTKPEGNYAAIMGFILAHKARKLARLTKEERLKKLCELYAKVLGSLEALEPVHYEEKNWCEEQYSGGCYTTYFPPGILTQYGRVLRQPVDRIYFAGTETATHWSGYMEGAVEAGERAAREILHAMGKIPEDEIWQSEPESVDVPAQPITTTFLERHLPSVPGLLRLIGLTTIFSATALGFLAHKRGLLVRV
// class assignment uses IC50 with these ranges: c1 = under 2000 nM, c2 = from 2000 nM up to 10000 nM, c3 = 10000 nM and over

> print(dat)
                                  smiles.str  class.name
 1       O=C(/C=C/c1ccc2ccccc2c1Br)c1ccccc1O          c2
 2           COc1cccc(/C=C/C(=O)c2ccccc2O)c1          c2
 3         COc1ccc(Br)cc1/C=C/C(=O)c1ccccc1O          c3
 4            O=C(/C=C/c1ccc(F)cc1)c1ccccc1O          c1
 5           COc1ccc(/C=C/C(=O)c2ccccc2O)cc1          c1
 6  CCN(C)C(=O)Oc1ccccc1C(=O)/C=C/c1ccc(F)cc1          c1
 7  CCN(CC)C(=O)Oc1ccccc1C(=O)/C=C/c1ccc(F)cc1          c2
 8              O=C(/C=C/c1ccccc1F)c1ccccc1O          c3
 9            O=C(/C=C/c1ccc(O)cc1)c1ccccc1O          c1
10         O=C(/C=C/c1c(Br)cccc1Br)c1ccccc1O          c3
11  O=C(/C=C/c1ccc(Br)cc1OC(F)(F)F)c1ccccc1O          c2
